In this section we review reported glycan array binding signal (z-score) values for a set of binders.
molecular target: Gal3S(b1-4)Glc; assay: glycan array binding signal (z-score within array); higher = stronger binding; conditions: glycan notation: IUPAC condensed, linker removed
Many of the other results were omitted from the sample, so the strongest signals are more common in it than they were.

[
  {
    "Binder": "Epa15 (Candida glabrata) (protein) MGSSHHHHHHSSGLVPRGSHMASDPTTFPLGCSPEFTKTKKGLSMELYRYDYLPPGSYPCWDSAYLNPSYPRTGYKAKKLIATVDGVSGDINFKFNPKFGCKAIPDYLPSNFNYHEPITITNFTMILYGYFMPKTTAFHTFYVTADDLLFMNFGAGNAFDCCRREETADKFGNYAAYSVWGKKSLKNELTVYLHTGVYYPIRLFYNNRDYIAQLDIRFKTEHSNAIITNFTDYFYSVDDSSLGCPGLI",
    "glycan array binding signal (z-score)": -0.053
  },
  {
    "Binder": "Pwp2 (Candida glabrata) (protein) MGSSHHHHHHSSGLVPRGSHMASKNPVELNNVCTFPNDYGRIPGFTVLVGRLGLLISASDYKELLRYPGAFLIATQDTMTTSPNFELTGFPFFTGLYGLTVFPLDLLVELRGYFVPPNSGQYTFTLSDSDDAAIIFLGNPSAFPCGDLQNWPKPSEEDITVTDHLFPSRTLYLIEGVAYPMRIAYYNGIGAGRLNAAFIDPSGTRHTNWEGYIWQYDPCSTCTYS",
    "glycan array binding signal (z-score)": -0.429
  },
  {
    "Binder": "Epf (Streptococcus pyogenes) (protein) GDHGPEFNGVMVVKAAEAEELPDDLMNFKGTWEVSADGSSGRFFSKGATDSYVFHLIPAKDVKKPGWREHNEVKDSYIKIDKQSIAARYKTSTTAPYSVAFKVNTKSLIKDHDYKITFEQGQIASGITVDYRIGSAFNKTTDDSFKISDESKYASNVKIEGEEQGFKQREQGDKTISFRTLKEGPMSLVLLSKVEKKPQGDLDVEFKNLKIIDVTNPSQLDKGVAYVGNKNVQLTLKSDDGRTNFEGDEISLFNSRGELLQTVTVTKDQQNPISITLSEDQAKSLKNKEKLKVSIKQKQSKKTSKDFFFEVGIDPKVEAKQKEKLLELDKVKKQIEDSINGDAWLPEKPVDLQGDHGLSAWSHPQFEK",
    "glycan array binding signal (z-score)": 1.73
  },
  {
    "Binder": "Epa1to9 (Candida glabrata) (protein) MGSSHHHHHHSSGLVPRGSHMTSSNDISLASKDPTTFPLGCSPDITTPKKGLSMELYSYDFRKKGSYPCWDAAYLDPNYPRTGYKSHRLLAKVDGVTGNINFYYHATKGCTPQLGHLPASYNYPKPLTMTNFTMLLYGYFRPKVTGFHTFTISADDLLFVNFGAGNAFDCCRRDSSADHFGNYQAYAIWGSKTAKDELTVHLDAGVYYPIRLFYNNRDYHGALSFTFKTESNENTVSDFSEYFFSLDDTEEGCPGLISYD",
    "glycan array binding signal (z-score)": -0.283
  },
  {
    "Binder": "PEB1 (Campylobacter jejuni), Q0P9X8 (protein) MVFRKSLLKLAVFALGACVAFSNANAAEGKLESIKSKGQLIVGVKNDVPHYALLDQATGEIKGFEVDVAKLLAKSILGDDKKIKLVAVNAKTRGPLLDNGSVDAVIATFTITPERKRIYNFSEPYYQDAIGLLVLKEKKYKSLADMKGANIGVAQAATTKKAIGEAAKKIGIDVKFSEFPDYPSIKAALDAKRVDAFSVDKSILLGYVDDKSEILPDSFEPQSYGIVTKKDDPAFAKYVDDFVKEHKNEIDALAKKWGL",
    "glycan array binding signal (z-score)": -1.26
  },
  {
    "Binder": "SSP1 (Sclerotinia sclerotiorum), XP_001584968 (protein) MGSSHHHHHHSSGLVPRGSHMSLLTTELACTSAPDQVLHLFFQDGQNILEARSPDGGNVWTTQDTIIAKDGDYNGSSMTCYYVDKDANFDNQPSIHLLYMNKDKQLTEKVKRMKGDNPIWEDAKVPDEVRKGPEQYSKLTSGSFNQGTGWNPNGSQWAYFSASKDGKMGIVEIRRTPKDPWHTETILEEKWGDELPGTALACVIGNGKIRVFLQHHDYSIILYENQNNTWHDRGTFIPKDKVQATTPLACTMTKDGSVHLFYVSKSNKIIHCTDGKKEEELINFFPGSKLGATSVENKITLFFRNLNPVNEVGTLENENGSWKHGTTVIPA",
    "glycan array binding signal (z-score)": 1.38
  },
  {
    "Binder": "Spy 2007 (Streptococcus pyogenes), Q99XV3 (protein) MKKGFFLMAMVVSLVMIAGCDKSANPKQPTQGMSVVTSFYPMYAMTKEVSGDLNDVRMIQSGAGIHSFEPSVNDVAAIYDADLFVYHSHTLEAWARDLDPNLKKSKVDVFEASKPLTLDRVKGLEDMEVTQGIDPATLYDPHTWTDPVLAGEEAVNIAKELGRLDPKHKDSYTKNAKAFKKEAEQLTEEYTQKFKKVRSKTFVTQHTAFSYLAKRFGLKQLGISGISPEQEPSPRQLKEIQDFVKEYNVKTIFAEDNVNPKIAHAIAKSTGAKVKTLSPLEAAPSGNKTYLENLRANLEVLYQQLK",
    "glycan array binding signal (z-score)": -0.543
  },
  {
    "Binder": "Tp0751, 83732 (protein) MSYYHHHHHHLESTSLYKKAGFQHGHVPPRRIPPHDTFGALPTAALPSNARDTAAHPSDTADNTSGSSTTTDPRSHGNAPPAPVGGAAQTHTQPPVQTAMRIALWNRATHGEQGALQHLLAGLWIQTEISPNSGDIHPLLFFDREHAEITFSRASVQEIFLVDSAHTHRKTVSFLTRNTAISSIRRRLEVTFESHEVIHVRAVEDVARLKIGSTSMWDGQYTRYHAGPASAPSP",
    "glycan array binding signal (z-score)": 5.83
  }
]

// data source = the supplement of paper PMC8728848
